pIC50: recorded values
Molecular target: EGFR ins SVD (insertion of SVD between D770 and N771) (Homo sapiens, UniProt P00533, INS767SVD)
Sequence (P00533 with tags, fused parts or gaps INS767SVD limits assumed): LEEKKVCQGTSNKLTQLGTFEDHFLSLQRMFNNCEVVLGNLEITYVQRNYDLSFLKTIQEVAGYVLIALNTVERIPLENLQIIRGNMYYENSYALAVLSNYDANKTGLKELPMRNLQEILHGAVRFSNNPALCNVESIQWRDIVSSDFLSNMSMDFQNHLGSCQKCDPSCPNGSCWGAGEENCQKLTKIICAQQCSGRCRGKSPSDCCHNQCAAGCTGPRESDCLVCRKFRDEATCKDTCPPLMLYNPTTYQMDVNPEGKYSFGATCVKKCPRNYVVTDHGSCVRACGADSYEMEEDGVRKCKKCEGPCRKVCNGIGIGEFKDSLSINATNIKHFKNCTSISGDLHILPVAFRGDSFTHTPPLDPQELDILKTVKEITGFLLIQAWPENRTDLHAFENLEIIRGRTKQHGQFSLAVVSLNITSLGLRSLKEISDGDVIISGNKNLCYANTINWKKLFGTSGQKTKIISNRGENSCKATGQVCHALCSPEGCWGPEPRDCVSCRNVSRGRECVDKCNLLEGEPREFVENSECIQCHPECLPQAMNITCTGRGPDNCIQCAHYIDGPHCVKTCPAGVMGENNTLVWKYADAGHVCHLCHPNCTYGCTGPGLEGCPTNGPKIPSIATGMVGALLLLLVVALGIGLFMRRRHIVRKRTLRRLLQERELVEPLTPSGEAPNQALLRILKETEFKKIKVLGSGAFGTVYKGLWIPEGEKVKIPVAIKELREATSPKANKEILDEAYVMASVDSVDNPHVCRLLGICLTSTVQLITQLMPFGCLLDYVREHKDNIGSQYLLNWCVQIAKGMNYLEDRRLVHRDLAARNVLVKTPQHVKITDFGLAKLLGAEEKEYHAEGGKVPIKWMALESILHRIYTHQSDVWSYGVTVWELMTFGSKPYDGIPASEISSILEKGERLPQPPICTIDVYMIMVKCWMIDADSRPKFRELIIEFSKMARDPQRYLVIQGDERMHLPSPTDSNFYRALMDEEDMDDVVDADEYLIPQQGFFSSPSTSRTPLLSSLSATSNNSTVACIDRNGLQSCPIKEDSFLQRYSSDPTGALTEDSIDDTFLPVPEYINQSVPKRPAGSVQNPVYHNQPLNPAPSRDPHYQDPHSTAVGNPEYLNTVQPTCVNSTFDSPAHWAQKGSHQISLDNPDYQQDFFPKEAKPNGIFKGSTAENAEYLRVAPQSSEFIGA
Experiment: Exon 20-Mutant-EGFR(D770_N771insSVD) kinase assay (TR-FRET)
Format: biochemical
Details: Table 9; read-out: mutEGFR (D770_N771insSVD) kinase assay IC50
// pIC50 is dimensionless: -log10 of concentration (M)

If you can, please state the reported pIC50 value of "COC(C)(C)COc1cnccc1-c1[nH]c2c(c1Nc1cccc(F)c1C(F)(F)F)C(=O)NCC2" .
9.91

# get_value(readout='pIC50', item= "Cc1c(F)cccc1Nc1c(-c2ccncc2OCC(C)(C)N(C)C)[nH]c2c1C(=O)NCC2" )
8.95

Fill in: pIC50 of "Cc1c(Cl)cccc1Nc1c(-c2ccncc2OC[C@@H]2CCCN2C)[nH]c2c1C(=O)NCC2" is ___
9.14
